System: 227483-062-R1-J1-PDC complex spheroids with HUVEC/MSC, viability;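 note: spheroids exposed to compounds for seven days before readout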
Assay: Anticancer human tumor 227483-062-R1-J1-PDC patient-derived pancreatic carcinoma cell line growth inhibition [CLK]; active = viability on the fitted dose curve at most 10% of control; inactive = the rest
Conditions: second compound 10 µM; first compound 0.1 µM
Text: A high-throughput screen of multi-cell type tumor spheroids was designed to identify active combinations of […] and targeted small molecules. Complex spheroids include a stromal component modeled by human endothelial cells (HUVEC) and fibroblasts modeled by human mesenchymal stem cells (MSCs). […] Compounds. […] If the clinical Cmax for an agent had not been determined, the highest concentration tested was 10 microM. […]
Respond only with the outcome that fits, drawn from YES (active), NO (inactive)

Input: Called result for COC1C=CCC(C)C(C)S(=O)(=O)NC(=O)c2ccc3c(c2)N(CC2CCC21)CC1(CCCc2cc(Cl)ccc21)CO3 (stereo not given) + CN1CCN(c2cc(C(=O)Nc3cc4cc(-c5cnn(C)c5)ccc4cn3)ccn2)CC1
Output: YES

Input: Same thing, different molecule: C#Cc1c(F)ccc2cc(O)cc(-c3ncc4c(N5CC6CCC(C5)N6)nc(OCC56CCCN5CC(F)C6)nc4c3F)c12 (stereo not given) + CNC(=O)c1ccc(Nc2nc(OC3CCCC3)c3c(-c4ccc5nc(C)oc5c4)c[nH]c3n2)c(OC)c1
Output: NO

Input: Same thing, different molecule: COc1c(OCCCN2CCOCC2)ccc2c3n(c(=NC(=O)c4cnc(N)nc4)nc12)CCN3 + CNC(=O)c1ccc(Nc2nc(OC3CCCC3)c3c(-c4ccc5nc(C)oc5c4)c[nH]c3n2)c(OC)c1
Output: NO
